Sourced from patent US20110166062A1

target.of.assay: T1, GIP receptor (UniProt P48546 22-466)
T1 sequence (looked up): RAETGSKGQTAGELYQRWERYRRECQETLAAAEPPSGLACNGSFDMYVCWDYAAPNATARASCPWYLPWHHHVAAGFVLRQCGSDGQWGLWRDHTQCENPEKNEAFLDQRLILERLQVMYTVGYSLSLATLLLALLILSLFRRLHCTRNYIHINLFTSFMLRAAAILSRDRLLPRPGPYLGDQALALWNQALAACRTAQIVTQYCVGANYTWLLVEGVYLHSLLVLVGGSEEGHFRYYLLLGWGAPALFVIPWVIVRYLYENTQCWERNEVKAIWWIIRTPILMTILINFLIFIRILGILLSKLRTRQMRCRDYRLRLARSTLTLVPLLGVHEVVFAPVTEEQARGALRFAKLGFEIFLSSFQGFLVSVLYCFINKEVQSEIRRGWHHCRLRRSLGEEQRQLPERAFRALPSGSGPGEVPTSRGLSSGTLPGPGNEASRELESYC
experimental.details: cell-based or functional assay
Where no end group is shown, it is not given here. [ ]: non-standard residue; d: D form. The star is where a group is joined. PEG 40 kDa = PEG (40 kDa) covalently attached to Cys; Myristoyl = CCCCCCCCCCCCCC(=O)*; Aib = CC(C)(N)C(=O)O
# reported EC50, nM; GIP Receptor; entries follow
metric.name: EC50, nM; GIP Receptor (nM)

• Y[Aib]EGTFTSDYSIYLDKQAA[Aib]EFVC(PEG 40 kDa)WLLAGGPSSGAPPPSK(Myristoyl)-NH2 [mt-353] = 0.0035
• YXEGTFTSDYSIYLDKQAAXEFVNWLLAGGPSSGAPPPSKC (AIB at position 20 (Example 25); other non-standard residues as in the sequence listing) [mt-344] = 0.0319
• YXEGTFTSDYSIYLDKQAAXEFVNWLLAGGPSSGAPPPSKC (AIB at position 20 (Example 25); listed among the acylated glucagon peptides in paragraph 284; other non-standard residues as in the sequence listing) [mt-343] = 0.0243
• Y[Aib]EGTFTSDK(Myristoyl)SIYLDKQAA[Aib]EFVC(PEG 40 kDa)WLLAGGPSSGAPPPS-NH2 [mt-341] = 0.0566
